Provenance of the data: patent US11453711B2

Reported values of Cmax for individual entries
assay: PK study in non-human primates, single sc dose 5 nmol/kg, plasma ELISA; conditions: read-out: Cmax (nmol/L); monkey, single sc dose 5 nmol/kg
I only need the number, in nmol/L, no unit after it.

Please review the following examples before continuing.
MLC013: fusion polypeptide SEQ ID NO: 260 conjugated with Moiety A at 1K of Linker (conjugate, Moiety A conjugated at linker K1) HGEGTFTSDVSSYLEEQAAREFIAWLVRGGGKQEPGAQPGQEPGAQPGQEPGAQPGQEPGAQPGQEPGAQPGQEPGAQPGAQPGAQPGAQPGAQPGAQPGAQPGAQPGAQPARQGDHCPLGPGRCCRLHTVRASLEDLGWADWVLSPREVQVTMCIGACPSQFRAANLHAQIKTSLHRLRPDTVPAPCCVPASYNPMVLIQRTDTGVSLQTYDDLLARDCHCI = 41.3
MLC093: fusion polypeptide SEQ ID NO: 381 conjugated with Moiety B at 33C of Linker (conjugate, Moiety B conjugated at linker Cys33) HGEGTFTSDVSSYLEEQAAKEFIAWLVRGGGGAQPGAQPGAQPGAQPGAQPGAQPGAQPGAQPCQEPGAQPGQEPGAQPGQEPGAQPGQEPGAQPGQEPGAQPGQEPGAQPARQGDHCPLGPGRCCRLHTVRASLEDLGWADWVLSPREVQVTMCIGACPSQFRAANLHAQIKTSLHRLKPDTVPAPCCVPASYNPMVLIQKTDTGVSLQTYDDLLAKDCHCI = 56.2

Would you kindly share the measured Cmax for MLC090: fusion polypeptide SEQ ID NO: 379 conjugated with Moiety C at 39C of Linker (conjugate, Moiety C conjugated at linker Cys39) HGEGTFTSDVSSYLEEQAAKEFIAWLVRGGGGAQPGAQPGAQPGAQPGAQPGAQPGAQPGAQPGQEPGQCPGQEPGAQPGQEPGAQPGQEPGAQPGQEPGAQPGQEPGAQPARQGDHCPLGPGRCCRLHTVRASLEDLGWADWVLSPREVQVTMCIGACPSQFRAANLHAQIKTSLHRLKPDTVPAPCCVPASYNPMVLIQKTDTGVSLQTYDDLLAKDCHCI ?
36
